system: WPMY1-CANX-COX4; test: phenotypically active (imaging signature differs from DMSO and reproducible) at any of 0.3-9 uM (binary (1 = active, 0 = inactive)); higher = active; details: treatment time: 24 h
Counter-ions that a name gives are not always drawn.
Respond only with the outcome that fits, drawn from Y for active, N for inactive

Look over these answered cases.
molecule	class_name
COc1ccc2c(c1)[C@]13CCCC[C@@H]1[C@H](C2)N(C)CC3	N
C[C@H]1O[C@@H](O[C@H]2[C@@H](O)C[C@H](O[C@H]3[C@@H](O)C[C@H](O[C@H]4CC[C@@]5(C)[C@H](CC[C@@H]6[C@@H]5CC[C@]5(C)[C@@H](C7=CC(=O)OC7)[C@@H](O)C[C@]65O)C4)O[C@@H]3C)O[C@@H]2C)C[C@H](O)[C@@H]1O	Y
C[C@]12CC[C@H](O)C[C@H]1CC[C@@H]1[C@@H]2C[C@@H](O)[C@]2(C)[C@@H](C3=CC(=O)OC3)CC[C@]12O	Y
CNC(=O)Oc1ccc2c(c1)[C@]1(C)CCN(C)O[C@@H]1N2C	N
CC(C)c1cccc(C(C)C)c1O	N

Q) Hi team, can someone confirm the assay call for C#CCN(C)[C@H](C)Cc1ccccc1 ?
A) N

Q) Identify the outcome logged in this assay for the molecule shown: CCCCCCCCCC(=O)O[C@H]1CC[C@H]2[C@@H]3CCC4=CC(=O)CC[C@@H]4[C@H]3CC[C@]12C [nandrolone-decanoate]
A) N

Q) Give the logged outcome of this assay for the following molecule: COc1ccc(C(=O)OC2C[C@H]3CC[C@H](C2)N3C)cc1OC (some centres undefined) [Convolamine hydrochloride]
A) N

Q) What was the test verdict on CCN(CC)C(C)C(=O)c1ccccc1 (centres undefined) ?
A) N

* * *

tested on: HepG2-ACTB-RAB5A; experiment: lowest phenotypically active concentration; higher = less potent; details: treatment time: 24 h
Structures can show the parent of a compound that is named as a salt.
# lowest phenotypically active concentration per record follows

Below are worked cases with known answers.
molecule	value
COC1=CC(C)=C[C@@H](C)[C@@H](O)[C@@H](C)CC(C)=CC=C[C@H](OC)[C@@H]([C@@H](C)[C@@H](O)[C@H](C)[C@@]2(O)C[C@@H](O)[C@H](C)[C@@H](C(C)C)O2)OC1=O	3 µM
CN1C(=O)CN=C(c2ccccc2)c2cc(Cl)ccc21	9 µM
CC(C)(N)Cc1ccccc1	9 µM
CC[C@]12C=CCN3CC[C@]4(C(=C(C(=O)OC)C1)Nc1ccccc14)[C@@H]32 [Tabersonine dichlorhydrate]	9 µM
Cc1sc2c(c1C)C(c1ccc(Cl)cc1)=N[C@@H](CC(N)=O)c1nnc(C)n1-2	≤ 0.3 µM
CC[C@@H](C(=O)[C@@H](C)[C@@H](O)[C@H](C)[C@@H]1O[C@@H]([C@@H](CC)C(=O)O)CC[C@@H]1C)[C@H]1O[C@]2(C=C[C@@H](O)[C@]3(CC[C@@](C)([C@H]4CC[C@](O)(CC)[C@H](C)O4)O3)O2)[C@H](C)C[C@@H]1C [Salinomycin Sodium]	1 µM
CC(C)C[C@H]1C(=O)N2CCC[C@H]2[C@]2(O)O[C@](NC(=O)[C@@H]3C=C4c5cccc6[nH]c(Br)c(c56)C[C@H]4N(C)C3)(C(C)C)C(=O)N12	9 µM
CN1C[C@H](C(=O)N[C@]2(C)O[C@@]3(O)[C@@H]4CCCN4C(=O)[C@H](Cc4ccccc4)N3C2=O)C=C2c3cccc4[nH]cc(c34)C[C@H]21	9 µM

Q) Could you share which lowest phenotypically active concentration value was measured for Cc1sc2c(c1C)C(c1ccc(Cl)cc1)=N[C@@H](CC(=O)OC(C)(C)C)c1nnc(C)n1-2 ?
A) ≤ 0.3 µM

Q) Sample O=C(NCCN1CCC2(CC1)C(=O)NCN2c1cccc(F)c1)c1ccc(F)c(F)c1 [ML 298 hydrochloride] — what was its lowest phenotypically active concentration?
A) 9 µM

Q) // lookup lowest phenotypically active concentration for COc1ccc2c(c1)/C(=C/c1c[nH]cn1)C(=O)N2
A) 1 µM

Q) Report lowest phenotypically active concentration for COc1ccc(C[C@H]2NC[C@H](O)[C@H]2OC(C)=O)cc1 please.
A) ≤ 0.3 µM

Q) Requested field: lowest phenotypically active concentration. Item: O=c1[nH]c2ccccc2n1C1CCN(CCCC(c2ccc(F)cc2)c2ccc(F)cc2)CC1 [pimozide]
A) 3 µM

Q) Reported lowest phenotypically active concentration for C[C@]12CC[C@H](O)C[C@H]1CC[C@@H]1[C@@H]2C[C@@H](O)[C@]2(C)[C@@H](C3=CC(=O)OC3)CC[C@]12O : what is it?
A) 1 µM

Origin of measurements: the supplement of paper PMC7411054
